tested on: HOP-92 NSCLC; assay: NCI tumour cell line growth inhibition, 48 h; in the data active = GI50 below about 0.43 µM; inactive = the rest
Your reply should match one of these outcome classes. active, inactive

compound: O=c1ccc2nc(C(F)(F)F)nn(-c3ccccc3)c-2c1
measured_on: HOP-92 NSCLC
qualitative_label: inactive

Please state the recorded outcome for this compound: C[C@]12CCC(=O)CC1CC[C@@H]1C2CC[C@@]2(C)C1CC[C@@H]2OC(=O)CC[Se][Se]CCC(=O)O[C@H]1CCC2[C@@H]3CCC4CC(=O)CC[C@]4(C)C3CC[C@@]21C (some centres undefined)
inactive

Please state the recorded outcome for this compound: N#CC1=C(N)Oc2c(ccc3ccccc23)C1c1cccs1 (centres undefined)
active

Please state the recorded outcome for this compound: COc1cc(-c2csc(NC(=O)Nc3ccc(Cl)c(C(F)(F)F)c3)n2)cc(OC)c1OC
active

* * *

tested on: HOP-92 NSCLC; assay: NCI tumour cell line growth inhibition, 48 h; in the data active = GI50 below about 0.43 µM; inactive = the rest
Your reply should match one of these outcome classes. active, inactive

Please state the recorded outcome for this compound: C=C1C(=O)O[C@H]2[C@H]1CC/C(COC(=O)CCCC(=O)OC/C1=C/CC[C@@]3(C)O[C@H]3[C@H]3OC(=O)C(=C)[C@@H]3CC1)=C\CC[C@@]1(C)O[C@@H]21
inactive

Please state the recorded outcome for this compound: COc1cc2c(cc1OCc1ccccc1)N=CC1C[C@@H](O)CN1C2=O (some centres not stated)
inactive

Please state the recorded outcome for this compound: C=C1C(=O)O[C@H]2[C@H]1CC/C(COC(=O)/C=C\C(=O)NCc1ccc(Cn3c(=O)sn(CCCI)c3=O)cc1)=C\CC[C@@]1(C)O[C@@H]21
inactive

Please state the recorded outcome for this compound: O=C(CCCCN1CCOCC1)Nc1ccc(Cn2nnc3c2C(=O)c2nnn(Cc4ccc(NC(=O)CCCCN5CCOCC5)cc4)c2C3=O)cc1
inactive

Please state the recorded outcome for this compound: Oc1cccc(-c2nc(-c3n[nH]c(=S)n3-c3ccccc3)cc3c2[nH]c2ccccc23)c1
inactive

* * *

# maps each entry to its TGI
tested on: SF-268 CNS; assay: NCI tumour cell line growth inhibition, 48 h

Tell me reported TGI for CCCCOC(=O)C(=O)C(CC(CC)C(=O)c1ccccc1)C(=O)C=C(C)C (stereo not given) , tested with SF-268 CNS.
> 100 µM

Tell me reported TGI for O=[N+]([O-])c1ccc2c(c1)C(=NO)c1cc([N+](=O)[O-])ccc1-2 , tested with SF-268 CNS.
> 100 µM

Tell me reported TGI for CCOC(=O)/C=C1/SC(N2CCCCC2)C(=O)N1CC (stereo not given) , tested with SF-268 CNS.
> 100 µM

Tell me reported TGI for CC(C)C[C@H](NC(=O)Cn1ccc(Nc2ccccc2)cc1=O)B(O)O , tested with SF-268 CNS.
18.6 µM

Tell me reported TGI for O=C(CCCCN1CCOCC1)Nc1ccc(Cn2nnc3c2C(=O)c2nnn(Cc4ccc(NC(=O)CCCCN5CCOCC5)cc4)c2C3=O)cc1 , tested with SF-268 CNS.
1.6 µM

Tell me reported TGI for CCOC(=O)C1=C(OC(OCC)C(C)[Se]c2ccccc2)CCC1 (stereo not given) , tested with SF-268 CNS.
32.3 µM

Tell me reported TGI for COc1ccc(C(O)c2cc(OC)c(OC)c(OC)c2)cc1 (stereo not given) , tested with SF-268 CNS.
> 100 µM

Tell me reported TGI for CC1=C2C(=O)c3ccccc3C(=O)[C@H]2C[C@@H](N2CCCC2=O)O1 , tested with SF-268 CNS.
> 100 µM

Tell me reported TGI for CC12OC3(C)OC(=O)C(c4ccccc4)(O1)C3(C)O2 (stereo not given) , tested with SF-268 CNS.
> 100 µM

Tell me reported TGI for NC1=NS(=O)(=O)Nc2nc(-c3ccc(Cl)cc3)[nH]c21 , tested with SF-268 CNS.
> 100 µM

* * *

tested on: UO-31 renal; assay: NCI tumour cell line growth inhibition, 48 h
quantity_measured: TGI

For orientation, consider the following solved cases.
molecule: C[C@]12CCC(=O)CC1CC[C@@H]1C2CC[C@@]2(C)C1CC[C@@H]2OC(=O)CC[Se][Se]CCC(=O)O[C@H]1CCC2[C@@H]3CCC4CC(=O)CC[C@]4(C)C3CC[C@@]21C (stereo not given in full)
TGI: 10.7 µM

molecule: CN/N=C(\C)c1c(O)cc(C)oc1=O
TGI: > 100 µM

molecule: CCOC(=O)/C(C#N)=C/c1ccc(SCc2ccco2)c([N+](=O)[O-])c1
TGI: > 100 µM

molecule: O=C1C(=Cc2cccs2)C(=O)N(CCc2ccccc2)S(=O)(=O)N1CCc1ccccc1
TGI: > 50 µM

molecule: CC1=C(c2cc(C(=O)Nc3cc(C)ccc3C)nc(N)n2)Sc2ccccc2N1
TGI: > 100 µM

For the molecule shown here, CC(C)OC(=O)c1cc(NS(=O)(=O)c2ccc3ccccc3c2)cc(C(=O)OC(C)C)c1 , give the reported TGI.
> 100 µM

For the molecule shown here, C/C(=N\NC(=O)c1ccncc1)c1ccccc1Cl , give the reported TGI.
> 100 µM

For the molecule shown here, NCCCN1CCN(c2ccccc2)CC1 , give the reported TGI.
> 100 µM

For the molecule shown here, O=c1ccc2nc(C(F)(F)F)nn(-c3ccccc3)c-2c1 , give the reported TGI.
2.9 µM

For the molecule shown here, CCCNC(=S)N=Nc1c(O)[nH]c2ccccc12 , give the reported TGI.
> 100 µM

* * *

# maps each entry to its TGI
tested on: KM12 colon; assay: NCI tumour cell line growth inhibition, 48 h

For orientation, consider the following solved cases.
compound: CC1OC(OC2C(O)CC(OC3C(O)CC(OC4CCC5(C)C(CCC6C5CCC5(C)C(C7=CC(=O)OC7)CCC65O)C4)OC3C)OC2C)CC(O)C1O (centres undefined)
TGI: 0.209 µM

compound: Cc1nn(CCO)c(C)c1N=[N+]([O-])c1c(C)nn(CCO)c1C
TGI: 26 µM

compound: CC1(C)NC(C)(C)/C(=N\O)C(=NO)/C1=N/O
TGI: > 100 µM

compound: O=C(/C=C/c1ccc(Br)cc1)c1ccc(NCc2nc3ccccc3[nH]2)cc1
TGI: > 100 µM

compound: CCc1cccc(CC)c1NC(=O)C(C#N)C1=C(Cl)C(=O)c2ccccc2C1=O (centres undefined)
TGI: 35.5 µM

Let us move to another entry and its TGI.
Tell me reported TGI for Cc1nn(C(=O)c2ccccc2O)c2c1C(c1ccco1)SC(N)=N2 (centres undefined) , tested with KM12 colon.
> 10 µM

* * *

test system: EKVX NSCLC; assay: NCI tumour cell line growth inhibition, 48 h
Classification field: criterion met = TGI at or over 30 µM; criterion not met = TGI under 30 µM.

molecule: COC(=O)C1CCC2(C)[C@H](CCC3O[C@]32C)[C@@]1(C)CC(=O)c1ccoc1 (stereo partly specified)
qualitative_label: criterion met

molecule: O=C(O)C1=CN=C(C(=O)O)NN1
qualitative_label: criterion met

Determine whether measured TGI meets or exceeds 30 µM for Cc1ccc(Cl)cc1-c1nc(N)nc(Nc2ccc(Br)cc2)n1
criterion met

Determine whether measured TGI meets or exceeds 30 µM for C[n+]1c2ccccc2c(Nc2ccc(N3CCCCC3)cc2)c2[nH]c3ccccc3c21
criterion not met

Determine whether measured TGI meets or exceeds 30 µM for CSC(=NC#N)S/C=C/C(=O)c1ccc(Cl)cc1
criterion met

Determine whether measured TGI meets or exceeds 30 µM for CN(C)CCCn1c2c(c3ccc(-c4ccn[nH]4)cc3c1=O)C(=O)c1ccccc1-2
criterion not met

Determine whether measured TGI meets or exceeds 30 µM for O=C(O)CSc1ccc(N=C=S)cc1
criterion met

Determine whether measured TGI meets or exceeds 30 µM for COC1(OC)CC(CO)(CNc2nc(N)nc(Cl)c2C=O)C1
criterion met

* * *

# maps each entry to its TGI
tested on: HOP-18 NSCLC; assay: NCI tumour cell line growth inhibition, 48 h

For orientation, consider the following solved cases.
compound: O=[N+]([O-])c1ccc(-c2noc(-c3ccccc3)c2C2=NCCN2)cc1
value: > 100 µM

compound: Cc1cc([N+](=O)[O-])ccc1Sc1c2ccccc2nc2ccccc12
value: > 100 µM

compound: COc1ccc(Nc2nc3c(N)cc(C(F)(F)F)cc3nc2-c2ccccc2)cc1OC
value: 43.8 µM

For the compound shown here, NCCc1ccc2oc3cc(=O)c4ccccc4c-3nc2c1 , give the reported TGI.
4.67 µM

For the compound shown here, CCc1cccc(C)c1NC(=O)CC(=O)NNC(N)=S , give the reported TGI.
> 100 µM

For the compound shown here, NC(=O)NN/C=C(/C=Nc1ccccc1)[N+](=O)[O-] , give the reported TGI.
> 100 µM

For the compound shown here, CCOC(=O)N1Cc2ccoc2C1 , give the reported TGI.
> 100 µM

For the compound shown here, CCCCCCCCCCn1cccc1/C=C/c1ccc(/C=C/c2cccn2CCCCCCCCCC)cc1 , give the reported TGI.
> 100 µM

For the compound shown here, Oc1ccc(-c2nc(=S)[nH][nH]2)cc1 , give the reported TGI.
> 100 µM

For the compound shown here, CC(=O)OCC1(C)C(OC(C)=O)CCC2(C)C(CC(OC(C)=O)C3=CCOC3=O)C(O)(CO)CCC12 (stereo unspecified) , give the reported TGI.
> 100 µM

For the compound shown here, Cn1ncc2c(Nc3ccc(Cl)cc3)c3ccccc3nc21 , give the reported TGI.
69.5 µM

The origin of these recorded values is PubChem BioAssay (NCI).
